Could you please report measured pKd for the items listed next?
Target: T1, Purified recombinant human CD26 (rhDipeptidyl peptidase IV), R&D Systems CAT #1180-SE (human, UniProt P27487 29-766)
T1 construct: Bought recombinant protein; also called hu-CD26; soluble human CD26
T1 sequence (P27487 29-766 limits assumed): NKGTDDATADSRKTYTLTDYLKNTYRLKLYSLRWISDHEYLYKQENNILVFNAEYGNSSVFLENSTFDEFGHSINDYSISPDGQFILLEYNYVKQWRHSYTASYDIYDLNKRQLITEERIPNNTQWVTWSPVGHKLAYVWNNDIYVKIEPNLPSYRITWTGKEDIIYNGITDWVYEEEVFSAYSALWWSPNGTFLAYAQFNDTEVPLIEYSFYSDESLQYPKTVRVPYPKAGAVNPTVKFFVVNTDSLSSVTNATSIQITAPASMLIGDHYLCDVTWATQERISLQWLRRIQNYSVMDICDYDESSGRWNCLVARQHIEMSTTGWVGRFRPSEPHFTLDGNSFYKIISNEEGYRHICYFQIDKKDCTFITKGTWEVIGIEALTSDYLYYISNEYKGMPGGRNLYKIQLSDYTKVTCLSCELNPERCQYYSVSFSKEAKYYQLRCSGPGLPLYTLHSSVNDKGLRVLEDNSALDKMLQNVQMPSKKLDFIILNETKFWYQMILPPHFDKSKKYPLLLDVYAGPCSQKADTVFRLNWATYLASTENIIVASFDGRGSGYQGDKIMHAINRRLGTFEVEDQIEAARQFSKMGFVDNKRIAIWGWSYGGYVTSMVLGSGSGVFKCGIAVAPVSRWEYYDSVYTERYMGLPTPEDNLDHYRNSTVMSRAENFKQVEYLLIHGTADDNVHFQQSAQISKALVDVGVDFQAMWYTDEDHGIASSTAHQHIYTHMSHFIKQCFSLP
Assay: SPR (Biacore), Fab
Give bare numbers, as −log10 of the molar value.

Use these answered entries as a reference point.
Binder: Fab X399 (X399 VH and X380 VL) (Fab, V domains shown, Fab made in E. coli) VH: EVQLVQSGGGVKQPGETLRLTCTASGFSLSTYGVHWVRQAPGKGLEWVGVIWGDGRTDYDAAFMSRVTISKDTSKSTVYLQMNSLRAEDTAVYYCMRNRHDWFDYWGQGTTVTVSS VL: EIEMTQSPSSLSVSAGERATISCSASQDIRNSLNWYQQKPGQAPRLLIYYSSNLHTGVPARFSGSGSGTDFTLTISRLEPEDVAIYYCQQSNKLPLTFGSGTKVEIK
pKd: 8.55
//
Binder: Fab comprising X388 VH and CM03 VL (Fab, V domains shown, Fab made in E. coli) VH: EVQLVQSGGGLKQPGETLRLSCTASGYSLTTYGVHWVRQAPGKGLEWMGVIWGDGRTDYDSSFMSRVTISKDTSKSTAYLQLNSLRAEDTAVYYCTRNRHDWFDYWGQGTTVTVSS VL: DIQMTQSPSSLSASLGDRVTITCSASQGIRNSLNWYQQKPDGAVKLLIYYSSNLHSGVPSRFSGSGSGTDFSLTISNLEPEDIATYYCQQSIKLPFTFGSGTKLEIK
pKd: 8.52
//
Binder: Fab X391 (X388 VH and X376 VL) (Fab, V domains shown, Fab made in E. coli) VH: EVQLVQSGGGLKQPGETLRLSCTASGYSLTTYGVHWVRQAPGKGLEWMGVIWGDGRTDYDSSFMSRVTISKDTSKSTAYLQLNSLRAEDTAVYYCTRNRHDWFDYWGQGTTVTVSS VL: DILMTQSPSSLSASPGDRVTISCRASQDIRNNLNWYQQKPGQAPRLLIYYSSNLHSGVPDRFSGSGSGTDFTLTISRLEPEDFAAYYCQQSIKLPLTFGSGTKVEIK
pKd: 8.67
//
Binder: Fab X395 (X384 VH and X380 VL) (Fab, V domains shown, Fab made in E. coli) VH: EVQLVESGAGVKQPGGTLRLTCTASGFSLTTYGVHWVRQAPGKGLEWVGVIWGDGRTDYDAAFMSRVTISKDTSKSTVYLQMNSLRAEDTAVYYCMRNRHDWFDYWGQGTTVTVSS VL: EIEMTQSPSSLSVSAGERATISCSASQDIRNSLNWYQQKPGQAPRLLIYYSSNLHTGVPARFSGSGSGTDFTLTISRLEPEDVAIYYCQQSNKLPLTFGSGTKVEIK
pKd: 8.49

Let's switch to this binder now.
Tell me pKd reported for Fab comprising X376 VL and CM03 VH (Fab, V domains shown, Fab made in E. coli) VH: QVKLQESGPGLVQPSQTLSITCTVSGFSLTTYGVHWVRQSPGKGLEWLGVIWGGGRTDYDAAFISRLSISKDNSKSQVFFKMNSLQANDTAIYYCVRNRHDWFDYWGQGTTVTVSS VL: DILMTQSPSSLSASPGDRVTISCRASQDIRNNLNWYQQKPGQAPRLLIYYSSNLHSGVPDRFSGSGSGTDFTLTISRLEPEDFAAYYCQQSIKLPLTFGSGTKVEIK
8.64
